target: Her2 Exon 20 INSYVMA Ba/F3 (Homo sapiens, UniProt P04626, DUP772-775, cells depend on it); assay: Her2 Exon 20 INSYVMA Ba/F3 CellTiter-Glo; type: cell-based; conditions: CellTiter-Glo, 72 h, read-out: Her2 Exon 20 INSYVMA Ba/F3 CTG IC50
Sequence (P04626 with tags, fused parts or gaps DUP772-775): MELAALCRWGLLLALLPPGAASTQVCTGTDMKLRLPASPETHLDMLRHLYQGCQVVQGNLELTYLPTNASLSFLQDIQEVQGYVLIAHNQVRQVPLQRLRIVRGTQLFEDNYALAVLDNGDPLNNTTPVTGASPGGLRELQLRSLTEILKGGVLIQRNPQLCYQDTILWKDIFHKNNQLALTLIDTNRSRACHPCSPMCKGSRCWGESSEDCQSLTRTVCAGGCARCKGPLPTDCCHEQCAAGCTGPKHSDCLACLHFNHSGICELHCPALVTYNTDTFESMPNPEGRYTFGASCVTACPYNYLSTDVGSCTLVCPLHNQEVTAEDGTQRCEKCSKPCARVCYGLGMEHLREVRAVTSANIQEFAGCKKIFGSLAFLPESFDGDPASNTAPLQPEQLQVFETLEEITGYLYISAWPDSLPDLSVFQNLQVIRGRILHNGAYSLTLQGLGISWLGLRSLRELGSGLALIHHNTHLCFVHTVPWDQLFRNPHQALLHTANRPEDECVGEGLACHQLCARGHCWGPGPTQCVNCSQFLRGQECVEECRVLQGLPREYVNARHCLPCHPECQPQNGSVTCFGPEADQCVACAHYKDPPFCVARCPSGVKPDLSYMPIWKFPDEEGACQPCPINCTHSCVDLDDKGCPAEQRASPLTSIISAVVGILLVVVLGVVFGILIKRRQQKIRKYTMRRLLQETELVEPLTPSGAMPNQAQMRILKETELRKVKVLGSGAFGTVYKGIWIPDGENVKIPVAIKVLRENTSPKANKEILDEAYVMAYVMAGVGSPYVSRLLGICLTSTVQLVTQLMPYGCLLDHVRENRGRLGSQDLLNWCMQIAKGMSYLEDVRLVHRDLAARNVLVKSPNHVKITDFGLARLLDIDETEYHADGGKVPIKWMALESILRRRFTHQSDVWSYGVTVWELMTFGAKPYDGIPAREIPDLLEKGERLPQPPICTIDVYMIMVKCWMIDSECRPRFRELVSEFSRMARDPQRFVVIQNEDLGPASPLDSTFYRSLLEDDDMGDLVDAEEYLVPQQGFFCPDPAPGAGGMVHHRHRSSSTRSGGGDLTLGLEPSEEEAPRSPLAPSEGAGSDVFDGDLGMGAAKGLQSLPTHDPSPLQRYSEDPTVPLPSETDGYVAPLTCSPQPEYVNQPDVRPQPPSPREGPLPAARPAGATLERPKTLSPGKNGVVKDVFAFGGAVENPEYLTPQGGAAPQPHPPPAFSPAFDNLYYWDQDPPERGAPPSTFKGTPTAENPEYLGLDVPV
measurement.name: GI50

The examples below pair each entry with its known result.
>>> result("C=CC(=O)N1CCc2ccc(-c3c(-c4ccc(C5CCN(C)CC5)cc4)[nH]c4nccc(Cl)c34)cc21 [Example 55, 2,2,2-trifluoroacetate]")
"500 to 1000 nM"
>>> result("C=CC(=O)Nc1cc(-c2c(-c3cccc(C(=O)NCCCN(C)Cc4ccccc4)c3)[nH]c3nccc(Cl)c23)ccc1C")
"500 to 1000 nM"

I'm hoping you can list GI50 for every compound here, please.
1. C=CC(=O)N1CCCc2ccc(-c3c(-c4ccc(N5CCN(C)CC5)nc4)[nH]c4nccc(Cl)c34)cc21
2. C=CC(=O)Nc1cc(-c2c(-c3ccc(OCCN4CCCC4)cc3)[nH]c3ncc(C(=O)OC(C)C)cc23)ccc1C
3. C=CC(=O)Nc1cc(-c2c(-c3ccc(N4CCN(C)CC4)cc3)[nH]c3ncc(OCC)cc23)ccc1C [Example 193, 2,2,2-trifluoroacetate]

Ans:
["500 to 1000 nM", "100 to 500 nM", "≤ 100 nM"]

I'm hoping you can list GI50 for every compound here, please.
1. C=CC(=O)Nc1cc(-c2c(-c3cccc(C(=O)NCCCN4CCN(CC)CC4)c3)[nH]c3nccc(Cl)c23)ccc1C
2. C=CC(=O)Nc1cc(-c2c(-c3ccc(N4CCN(C)CC4)cc3)[nH]c3ncc(C(=O)NCCc4ccc(F)cc4)cc23)ccc1C
3. C=CC(=O)Nc1cc(-c2c(-c3ccc(OCCN(C)C)cc3)[nH]c3nccc(Cl)c23)ccc1C
4. C=CC(=O)Nc1cc(-c2c(-c3cccc(C(=O)N4CCC5(CC4)CN(C)C5)c3)[nH]c3nccc(Cl)c23)ccc1C
5. C=CC(=O)N1CCOc2ccc(-c3c(-c4ccc(N5CCN(C(C)C)CC5)cc4)[nH]c4nccc(Cl)c34)cc21
6. C=CC(=O)N1CCOc2ccc(-c3c(-c4ccc(OCCN5CCCC5)cc4)[nH]c4nccc(Cl)c34)cc21
7. C=CC(=O)Nc1cc(-c2c(-c3ccc(N4CCN(C)CC4)cc3)[nH]c3ncc(C(=O)NCc4nc5ccccc5[nH]4)cc23)ccc1C
8. C=CC(=O)Nc1cc(-c2c(-c3ccnc(N4CCN(C)CC4)c3)[nH]c3nccc(Cl)c23)ccc1C

Ans:
1000 to 10000 nM
100 to 500 nM
100 to 500 nM
1000 to 10000 nM
100 to 500 nM
100 to 500 nM
1000 to 10000 nM
100 to 500 nM

I'm hoping you can list GI50 for every compound here, please.
1. C=CC(=O)Nc1cc(-c2c(-c3ccc(OCCN(C)C)cc3)[nH]c3ncc(C(=O)OC(C)C)cc23)cc(F)c1C
2. C=CC(=O)Nc1cc(-c2c(-c3ccc(N4CCN(C)CC4)cc3)[nH]c3ncc(C(=O)OC4CCC4)cc23)ccc1C

Ans:
["100 to 500 nM", "100 to 500 nM"]

I'm hoping you can list GI50 for every compound here, please.
1. C=CC(=O)Nc1cc(-c2c(-c3cccc(OCCN4CCCC4)c3)[nH]c3ncc(C(=O)OC(C)C)cc23)ccc1C
2. C=CC(=O)Nc1cc(-c2c(-c3cccc(OCCCN(C)C)c3)[nH]c3ncc(C(=O)OC(C)C)cc23)ccc1C

Ans:
1. 100 to 500 nM
2. 100 to 500 nM

Values were extracted from patent US20220370440A1.
